- Tested on: Staphylococcus aureus
- assay name: Minimum inhibitory concentration required in vitro against Staphylococcus aureus
- Type: functional
Consider the following compounds; for each one, report its MIC.
# unit: µM | format: bare number

Report MIC for O=C(O)c1cn(C2CC2)c2cc(N3CCNCC3)c(F)cc2c1=O
0.4

Provide only the value of recorded MIC for O=C(O)c1cn(C2CC2)c2cc(NC3CC3)c([N+](=O)[O-])cc2c1=O
0.8

Output measured MIC for this item: CC(C)(C)Nc1cc2c(cc1[N+](=O)[O-])c(=O)c(C(=O)O)cn2C(C)(C)C
0.05

Kindly indicate its recorded MIC. Item: CC1COc2c(N3CCN(C)CC3)c(F)cc3c(=O)c(C(=O)O)cn1c23 (stereo not given)
0.8

###

Please provide measured MIC for the entries that follow.
- Test system: Streptococcus
- assay name: Minimum inhibitory concentration required in vitro against Streptococcus D
- Format: functional
# unit: µM | format: bare number

Please supply the value of reported MIC for the item CC(C)(C)Nc1cc2c(cc1F)c(=O)c(C(=O)O)cn2C(C)(C)C
12

Note MIC for the molecule shown: CC1COc2c(N3CCN(C)CC3)c(F)cc3c(=O)c(C(=O)O)cn1c23 (stereo not given) [OFLOXACIN]
1.5

Provide one value: measured MIC of CC(C)(C)Nc1cc2c(cc1[N+](=O)[O-])c(=O)c(C(=O)O)cn2C(C)(C)C
0.05

Annotate the molecule O=C(O)c1cn(C2CC2)c2cc(N3CCNCC3)c(F)cc2c1=O [CIPROFLOXACIN] with its measured MIC.
0.4

###

For each record, write down the corresponding MIC50.
- Test system: Mycolicibacterium smegmatis
- assay name: Minimum inhibitory concentration required in vitro to reduce the number of viable of Mycobacterium smegmatis ATCC 19420 by 50%
- Assay type: functional

Provide MIC50, recorded with Mycolicibacterium smegmatis, of CC(C)(C)Nc1cc2c(cc1N)c(=O)c(C(=O)O)cn2C(C)(C)C
> 125 µM

# assay system Mycolicibacterium smegmatis: give MIC50 of O=C(O)c1cn(C2CC2)c2cc(NC3CC3)c([N+](=O)[O-])cc2c1=O
3.2 µM

Param request: MIC50 | system Mycolicibacterium smegmatis | item CC(C)(C)Nc1cc2c(cc1[N+](=O)[O-])c(=O)c(C(=O)O)cn2C(C)(C)C
0.5 µM

Give MIC50 for Nc1cc2c(=O)c(C(=O)O)cn(C3CC3)c2cc1NC1CC1 tested on Mycolicibacterium smegmatis.
156 µM

###

Kindly state log10 of MBC for each of the entries shown.
- System: Streptococcus
- assay name: Minimum bactericidal concentration required in vitro against Streptococcus D
- Format: functional
Quick note: numbers are log10 of MBC, with µM as the unit.

Complete the entry with log10 of MBC for CC(C)(C)Nc1cc2c(cc1F)c(=O)c(C(=O)O)cn2C(C)(C)C
1.08

Please list log10 of MBC recorded for the molecule CC(C)(C)Nc1cc2c(cc1[N+](=O)[O-])c(=O)c(C(=O)O)cn2C1CC1
0.40

State, in one line, measured log10 of MBC of O=C(O)c1cn(C2CC2)c2cc(NC3CC3)c(F)cc2c1=O
1.08

Item Nc1cc2c(=O)c(C(=O)O)cn(C3CC3)c2cc1NC1CC1 : provide log10 of MBC
1.70

Using known records, supply log10 of MBC for CC1COc2c(N3CCN(C)CC3)c(F)cc3c(=O)c(C(=O)O)cn1c23 (centres undefined) [OFLOXACIN]
0.18

For the molecule O=C(O)c1cn(C2CC2)c2cc(NC3CC3)c([N+](=O)[O-])cc2c1=O , give its reported log10 of MBC.
-0.10

Annotate the molecule CC(C)(C)n1cc(C(=O)O)c(=O)c2cc([N+](=O)[O-])c(NC3CC3)cc21 with its measured log10 of MBC.
1.00

Look up and state reported log10 of MBC for O=C(O)c1cn(C2CC2)c2cc(N3CCNCC3)c(F)cc2c1=O [CIPROFLOXACIN]
-0.10

Supply measured log10 of MBC of CC(C)(C)Nc1cc2c(cc1[N+](=O)[O-])c(=O)c(C(=O)O)cn2C(C)(C)C in your reply.
-1.30

###

- Tested on: Mycobacterium avium
- assay name: Minimum inhibitory concentration required in vitro to reduce the number of viable of Mycobacterium avium complex (MAC) ATCC 49601 by 50%
- Format: functional
measured quantity: MIC50 (µM)
# output: bare number, implied unit µM

Recall the reported MIC50 of Nc1cc2c(=O)c(C(=O)O)cn(C3CC3)c2cc1NC1CC1 on Mycobacterium avium and write it down.
129

# return MIC50 of O=C(O)c1cn(C2CC2)c2cc(N3CCNCC3)c(F)cc2c1=O (system: Mycobacterium avium)
2

Fill in MIC50 for CC(C)(C)Nc1cc2c(cc1N)c(=O)c(C(=O)O)cn2C(C)(C)C tested with Mycobacterium avium.
140

Provide MIC50, recorded with Mycobacterium avium, of CC(C)(C)Nc1cc2c(cc1[N+](=O)[O-])c(=O)c(C(=O)O)cn2C(C)(C)C
1.2

Param request: MIC50 | system Mycobacterium avium | item CC(C)(C)n1cc(C(=O)O)c(=O)c2cc([N+](=O)[O-])c(NC3CC3)cc21
47

Report MIC50 under test system Mycobacterium avium for CC(C)(C)Nc1cc2c(cc1[N+](=O)[O-])c(=O)c(C(=O)O)cn2C1CC1 .
54

Name the recorded MIC50 of CC1COc2c(N3CCN(C)CC3)c(F)cc3c(=O)c(C(=O)O)cn1c23 (stereo not given) , assay system Mycobacterium avium.
1.5

###

I'd be grateful if you could share measured MIC for these entries.
- Tested on: Staphylococcus aureus
- assay name: Minimum inhibitory concentration required in vitro against Staphylococcus aureus
- Format: functional
Kindly provide the numeric value in µM only, without the unit symbol.

Consider the compound CC(C)(C)n1cc(C(=O)O)c(=O)c2cc([N+](=O)[O-])c(NC3CC3)cc21 . State its measured MIC.
2.5

Please list MIC recorded for the compound Nc1cc2c(=O)c(C(=O)O)cn(C3CC3)c2cc1NC1CC1
25

Look up and report measured MIC for this entry: CC(C)(C)Nc1cc2c(cc1F)c(=O)c(C(=O)O)cn2C(C)(C)C
12

Using known records, supply MIC for O=C(O)c1cn(C2CC2)c2cc(NC3CC3)c(F)cc2c1=O
12

For CC(C)(C)Nc1cc2c(cc1[N+](=O)[O-])c(=O)c(C(=O)O)cn2C1CC1 , write its MIC.
0.6

###

Please go through the items and note down their MIC90.
- Test system: Mycobacterium tuberculosis
- assay name: Minimum inhibitory concentration required in vitro to reduce the number of viable of Mycobacterium tuberculosis clinical isolate 1104 by 90%
- Assay type: functional

Return reported MIC90. Input compound: CC(C)(C)n1cc(C(=O)O)c(=O)c2cc([N+](=O)[O-])c(NC3CC3)cc21
> 200 µM

Please look at this compound and report its MIC90: CC(C)(C)Nc1cc2c(cc1[N+](=O)[O-])c(=O)c(C(=O)O)cn2C1CC1
> 200 µM

Check the records and state MIC90 for CC1COc2c(N3CCN(C)CC3)c(F)cc3c(=O)c(C(=O)O)cn1c23 (stereo unspecified) [OFLOXACIN]
3 µM

Name the recorded MIC90 of the compound listed here: CC(C)(C)Nc1cc2c(cc1[N+](=O)[O-])c(=O)c(C(=O)O)cn2C(C)(C)C
6 µM

Find the measured MIC90 of CC(C)(C)Nc1cc2c(cc1N)c(=O)c(C(=O)O)cn2C(C)(C)C and report it.
> 200 µM

Item O=C(O)c1cn(C2CC2)c2cc(NC3CC3)c([N+](=O)[O-])cc2c1=O : provide MIC90
> 200 µM

###

- System: Mycolicibacterium smegmatis
- assay name: Minimum inhibitory concentration required in vitro to reduce the number of viable of Mycobacterium smegmatis ATCC 19420 by 50%
- Type: functional
measured quantity: MIC50 (µM)
Give a bare numeral; the unit µM is implied.

Please look at this molecule and report its MIC50: CC(C)(C)Nc1cc2c(cc1F)c(=O)c(C(=O)O)cn2C(C)(C)C
34.5

Look up and state reported MIC50 for CC1COc2c(N3CCN(C)CC3)c(F)cc3c(=O)c(C(=O)O)cn1c23 (stereo not given)
2

Identify measured MIC50 associated with CC(C)(C)Nc1cc2c(cc1[N+](=O)[O-])c(=O)c(C(=O)O)cn2C1CC1
2

Please supply the value of reported MIC50 for the item O=C(O)c1cn(C2CC2)c2cc(NC3CC3)c(F)cc2c1=O
150

Quick one: give measured MIC50 for CC(C)(C)n1cc(C(=O)O)c(=O)c2cc([N+](=O)[O-])c(NC3CC3)cc21
2

###

- Tested on: Mycolicibacterium fortuitum
- assay name: Minimum inhibitory concentration required in vitro to reduce the number of viable of Mycobacterium fortuitum (clinical isolate) by 50%
- Assay type: functional
measured quantity: MIC50 (µM)
Report as a plain number; the unit µM is understood.

Read off the recorded MIC50 for CC1COc2c(N3CCN(C)CC3)c(F)cc3c(=O)c(C(=O)O)cn1c23 (stereo not drawn) [OFLOXACIN]
2

Give the measured MIC50 for O=C(O)c1cn(C2CC2)c2cc(NC3CC3)c([N+](=O)[O-])cc2c1=O
3.6

Supply reported MIC50 belonging to this molecule: CC(C)(C)Nc1cc2c(cc1F)c(=O)c(C(=O)O)cn2C(C)(C)C
36

Supply measured MIC50 of Nc1cc2c(=O)c(C(=O)O)cn(C3CC3)c2cc1NC1CC1 in your reply.
200
